# System: Mus musculus
# EXPERIMENT_DESCRIPTION: Analgesic activity in sc dosed CD-1 mouse assessed as inhibition of phenylquinone-induced writhing administered 15 to 90 mins prior challenge measured 5 mins post challenge
# Format: functional
# REPORTED_CONDITIONS: CD-1, sc
Mark each entry true (1) if its ED50 sits below 6 mg/kg, and false (0) for all others.

MOLECULE	CLASSIFICATION
Br.COc1cccc(C23CCC(C2)N(CCCC(=O)c2ccc(F)cc2)CC3)c1 (racemic)	true (1)
Br.Cc1ccc(CCN2CCC3(c4cccc(O)c4)CCC2C3)cc1 (racemic)	true (1)
Br.CC(=O)Oc1cccc(C23CCC(C2)N(C)CC3)c1 (racemic)	false (0)
CN1CC[C@]23c4c5ccc(O)c4O[C@H]2[C@@H](O)C=C[C@H]3[C@H]1C5	true (1)
Br.CCCCCN1CCC2(c3cccc(O)c3)CCC1C2 (racemic)	false (0)
Br.Oc1cccc(C23CCC(C2)N(CCc2cccc(Cl)c2)CC3)c1 (racemic)	true (1)
Br.Oc1ccc(CCN2CCC3(c4cccc(O)c4)CCC2C3)cc1 (racemic)	true (1)
Br.Oc1cccc(C23CCC(C2)N(CCc2cccs2)CC3)c1 (racemic)	true (1)
Br.Oc1cccc(C23CCC(C2)N(Cc2ccco2)CC3)c1 (racemic)	false (0)
Br.CCCCN1CCC2(c3cccc(OC)c3)CCC1C2 (racemic)	true (1)
CC(C)=CCN1CC[C@]2(C)c3cc(O)ccc3C[C@H]1[C@H]2C [(+)-PENTAZOCINE]	true (1)
